- EXPERIMENTAL DETAILS: yeast display, Sf9 membrane polyspecificity reagent, FACS + sequencing; frameworks hold sequencing errors
PARAMETER MEASURED: polyreactivity (PSR sort gate)

ITEM SEQUENCE	REPORTED
QVQLVESGGGLVQAGGSLRLSCAASGGIFQGNVMGWYRQAPGKERELVASIRRGGSTNYADSVKGRFTISRDNAKNTVYLQMNSLKPEDTAVYYCSARKWVGYHVWPLREYNYWGQGTQVTVSS	low polyreactivity
QVQLVESGGGLVQAGGSLRLSCAASGSIFPYNVMGWYRQAPGKERELVAAISTRGGRTYYADSVKGRFTISRDNAKNTVYLQMNSLNPEDTAVYYCATAGGPYSASGYYWGQGTKVTVSS	high polyreactivity
QVQLVESGGGLVQAGGSLRLSCAASGSIFYRYAMGWYREAPGKERELVAAISSSGGSTYYADSVKGRFTISRDNAKNTVYSQMNSLKPEDTAVYYCNTDRYYTYDYWGQGTQVTVSS	low polyreactivity
QVQLVDTGGGLVQAGGSLRFSCAASGSIFQVYAMGWYRQAPGKERELVASITSSGGSTYYADSVKGRFTISRDNAKNTVYLQMNSLKTEDTAVYYCADDQWSQDYDYWGQGTQVTVSS	low polyreactivity
QVQLVESGGGLVQAGGSLRLSCAASGSTLDVYAMGWYRQAPGKERELVAAISWSVGSTYYADSVKGRFKISRDNAKNTVYLQMNSLKPEDTAVYYCAAEPYEYAYYGYDYWGQGTQVTVSS	high polyreactivity

###

- EXPERIMENTAL DETAILS: yeast display, Sf9 membrane polyspecificity reagent, FACS + sequencing; frameworks hold sequencing errors
PARAMETER MEASURED: polyreactivity (PSR sort gate)

ITEM SEQUENCE	REPORTED
QVQLVESGGGLVQAGGSPRLSCAASGRIFGVNAMGWYRQAPGKERELVAAISVSGDSTYYADSVKGRFTISRDNAKNTVYLQMNSLKPEDTAVYYCYAGYTFVPADLTDEYYWGQGTQVTVSS	low polyreactivity
QVQLVESGGGLVQAGGSLRLSCAACGSIFRRYAMGWYRQAPGKERELVASIRGGGGTYYADSVKGRFTISRDNAKNTVYLQMNSLKPEDTAVYYCAATRYLAYFRKSFYYWGQGTQVTVSS	high polyreactivity
QVQLVESGGGLVQAGGSLRLSCAASGRIFKGYAMGWYRQAPGKERELVAAITWRGGTTYYADSVKGRFTISRDNAKNTVYLQMNSLKPEDTAVYYCATTRYPRSYDYYYWGQGTQVTVSS	high polyreactivity
QVQLVESGGGLVQAGGSLRLSCAASGHIFYAYAMASYRQAPGKERELVASITYRGVSTYYADSVKARFTISRDNAKNTVYLQMHSLKPEDTAVYYCAAGRSRYLWFGRDFDYWGQGTQVTVSS	low polyreactivity
QVQLVESGGGLVQAGGSLRLSCAASGRTFSYYAMGWYRQAPGKERELVAAISYSGGRTYYADSVKGRFTISRDNAKNTVYIQMNSLKPEDTAVYYCAPVKSRPQYGYGYWVQGTQVTVSS	high polyreactivity
QVQLEDSGGGLVQAGGSLRLSCAASGLNLYRYAMGVYRQEPGKEREFVASISWSGGSTYYADSVKGRFTISRDNAKNTVYLQMNSLKPEDTAVYYCATDSDTSQLGYDYWGQGTQVTVAS	low polyreactivity
QVQLVESGGGLVQAGGSLRLSCAASGRTFDVYAMGWYRQAPGKERELVATISYRSARTYYADSVKGRFTISRDNAKNTVYLQMNSLKPEDTAVYYCAAYFETWHGFGYWGQGTQVTVSS	high polyreactivity
QVQLVESGGGLVQAGGSLRLSCAASGSTFGINAMGWYRQAPGKERELVAAISRRGGSTYYADSVKGRFTISRDNAKNSVYLQMNSLKPEDTAVYYCAARYRNHQYDYWGQGTQVTVSS	high polyreactivity
QVQLVESGGGLVQAGGSLRLSCAASGYTFSYYDMGWYRQAPGKERELVAGISKRGGSTRYADSVKGRFTISRDNAKNTVYLQMNSLKPEDTAVYYCNRLPYLHYAGRLTNYDYWGQGTQVTVSS	high polyreactivity
QVQLVESGGGLVQAGGSLRLSCAASGSTFYAYTMGWYRQAPGKARELFGTISSSGGRTNYADSVKGRFTISRDNAKNTVYLQMNSLKPEDTAVYYCAARSRVRNLVNGYTGLWYDYWGQGTQVTVSS	high polyreactivity
QVHLVESGGGLVQAGGSHRLSCAAYGRIFRANAKGWYRQAPGKERELVASITYSGGSTYYADSVKGRFTISRDNAKNTVYLQMNSLKPEDTAVYYCARAGISSGGYYYWGQGTQVTVSS	low polyreactivity

###

- EXPERIMENTAL DETAILS: yeast display, Sf9 membrane polyspecificity reagent, FACS + sequencing; frameworks hold sequencing errors

ITEM SEQUENCE	polyreactivity (PSR sort gate)
QVQLVESGGGLVQAGGSLRLSCSASGRTFYSYAMGWYRQPRGKERELVATIRRGGRTNYADSVKGRFTISRDNAKNTVYLLMNSLKPEDTAVYYCAAEDYRSLVTSTYDYWGQGTQVAVSS	low polyreactivity
QVQLVESGGGLVQAGGSLRLSCAASGSIFRYYAMGWYRQAPGKERELVAAIRRSGASTYYADSVKGRFTISRDNAKNTVYLHMNSLKPEDTAVYYCAASSFNNGHRYDYWGQGTQVTVSS	high polyreactivity
QVQLVDSGGGLVQAGGRLRLSRAASGSIFRRYPMGWYRQAPGKERELVAAISRNSGRTYYADSVKGRFTISRDNAKITDYLQMNSLKPEDTAVYYCNADTSLAANGKFDYWGQGTQGTVSS	high polyreactivity
QVQLVESGGGLVQAGGSLRLSCAASGITFSYYAMGWYRPAPGKERELVAAISRTGTSTYYADSVKGRFTISRDNAKNTVYFQMNSLKPEDTAVYYCAAVPRHPYHDKYDYWGQGTQVTVSS	high polyreactivity
QVQLVESGGGLVQAGGSLRLSCAASGRIFFVNAMGWYRQAPGKERELVAAISRGGTTYYADSVKGRFTISRDNAKNTVYLQMNSLKPEDTAVYYCNVAYTPSFYRYDYWGQGTQVTVSS	low polyreactivity
QVQLVESGGGLVQAGGSLRLSCAASGFTFFKYAMGWYRQAPGKERELVAAITRNGGRTYYADSVKGRFTISRDNAKNTVYLQMNSLKPEDTAVYYCAAVQYRYGGMDYWGQGTQVTVSS	high polyreactivity
QVQLVESGGGLVQAGGSLRVSCAASGSIFSSYAMGWYRQAPGKDRELVAVINSGGSTNYADSVKGRFTISRDNAKNTVYFQMNTLKPEDTAVYYCNAYGGTFHNSAAEFDYWGQGTQVSVSS	low polyreactivity
QVQLVESGGGLVQAGGSLRLSCAASGRIFHFYAMGWYRQAPGKERELVAAITSRTGNTYYADSVKGRYTISRDNAKNTVYLQMNSLKPEDTAVYYCAAKLVNALLHYRNWNHNNYWGQGTQVNVSS	low polyreactivity
QVQLVESGGGLGQAGGSLRLSCAASGSIFYSYAMGSYRQATGKERELVAAINWSGGSTYYADSVKGRFTISRDNAKNTVSLLMNSLKPEDTAVYYCAAGPGDSGDDYWGQCTQVTVSS	low polyreactivity
QVQLVESGGGLVQAGGSLRLSCAASGSIFGTNAMGWYRQAPGKERELVATITSAGSTYYADSVKGRFTISRDNAKNTVYLQMNSLKPEDTAVYYCARQATGYVYREYDYWGQGTQVTVSS	low polyreactivity
QVQLVESGGGLVQAGGSLRLSCAASGSTFYSYAMGWYRQAPGKERELVAAISSGGSTYYADSVKGRFTISRDNAKNTGYLQMNSLKPEDTAVYYCAAKRRAKTGYRYDYWGQGTQVTVSS	high polyreactivity

###

- EXPERIMENTAL DETAILS: yeast display, Sf9 membrane polyspecificity reagent, FACS + sequencing; frameworks hold sequencing errors

ITEM SEQUENCE	polyreactivity (PSR sort gate)
QVQLVESGGCLVQAGGSLRLSCAASGRTFDVYAMGWYRQAPGKERELVATIRSDGSTTYADSVKGRFTISRDNAKNTVYLQMNSLKPEDTAVYYCAADFRSGFSSSTTPVQSDWGQGTQVTVSS	low polyreactivity
QVQLVESGGGLVQAGGSLRLSCAASGSIFVLNAMGWYRQAPGKERELVAAITNVGSTYYADSVKGRFTISRDNAKNTVYLQMNSLKPEDTAVYYCNAVVATSKYTDYYWGQGTQVTVSS	low polyreactivity
QVQLVESGGGLVQAGGSLRLSCAASGRTFSDYAMGWYRQAPGKERELVAAITSSSGTTYYADSVKGRFTISRDNAKNTVYFQMNSLKPEDTAVYYCAAGHPYSLSERYNYWGQGTQVTVSS	low polyreactivity
QVQLVESGGGLVQAGGSLRLSCAASGRIFYINAMGWSRQAPGKERELVAAITEGGVSTYYADSVKGRFTISRDNAKNTVYLQMNSLKPEDTAVYYCNTTGGPDGIVIYEYWGQGTQVTVSS	low polyreactivity
